target: T1, recombinant human TfR1 (transferrin receptor protein 1) (human, UniProt P02786 89-760); test: Biacore, d25; TfR1 species not stated
T1 construct: Recombinant protein in SPR and ELISA; they were assigned to this molecule; also called hTfR1; huTfR1
T1 sequence (P02786 89-760 limits assumed): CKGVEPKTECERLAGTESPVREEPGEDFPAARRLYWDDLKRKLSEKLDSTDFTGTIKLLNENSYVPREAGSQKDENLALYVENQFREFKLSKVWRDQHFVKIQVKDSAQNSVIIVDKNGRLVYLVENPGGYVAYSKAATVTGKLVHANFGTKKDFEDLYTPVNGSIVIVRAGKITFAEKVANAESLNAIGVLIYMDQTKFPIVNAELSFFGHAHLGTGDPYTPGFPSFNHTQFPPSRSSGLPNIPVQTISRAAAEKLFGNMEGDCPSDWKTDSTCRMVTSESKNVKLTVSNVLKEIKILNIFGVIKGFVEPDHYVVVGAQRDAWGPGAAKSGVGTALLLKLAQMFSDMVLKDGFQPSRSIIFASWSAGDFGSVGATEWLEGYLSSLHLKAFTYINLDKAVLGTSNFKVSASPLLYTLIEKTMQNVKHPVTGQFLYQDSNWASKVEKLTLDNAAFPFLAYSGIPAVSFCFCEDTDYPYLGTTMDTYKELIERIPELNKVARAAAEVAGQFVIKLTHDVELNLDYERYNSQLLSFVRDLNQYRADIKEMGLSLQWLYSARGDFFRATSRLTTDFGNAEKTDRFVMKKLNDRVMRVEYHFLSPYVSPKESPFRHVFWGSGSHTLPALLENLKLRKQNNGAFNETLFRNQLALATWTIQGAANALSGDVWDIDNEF
Reported Kd by item:
measurement.type: Kd (nM)

humanized anti-TfR Fab 3M12 VH3/Vκ2 (Fab, V domains shown, also called 3M12 (VH3/Vk2)) VH: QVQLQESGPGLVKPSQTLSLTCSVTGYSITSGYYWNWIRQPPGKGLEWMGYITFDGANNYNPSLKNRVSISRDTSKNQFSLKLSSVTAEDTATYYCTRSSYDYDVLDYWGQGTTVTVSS VL: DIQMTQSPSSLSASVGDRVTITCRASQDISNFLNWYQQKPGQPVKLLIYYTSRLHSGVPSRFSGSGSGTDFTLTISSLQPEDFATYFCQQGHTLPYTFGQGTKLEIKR : 0.567
humanized anti-TfR Fab 5H12 VH5 (C33D)/Vκ4 (Fab, V domains shown, also called 5H12 (VH5-C33D/Vk4)) VH: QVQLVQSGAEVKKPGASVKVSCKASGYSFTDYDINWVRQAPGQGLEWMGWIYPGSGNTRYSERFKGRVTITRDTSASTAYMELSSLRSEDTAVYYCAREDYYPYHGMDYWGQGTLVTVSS VL: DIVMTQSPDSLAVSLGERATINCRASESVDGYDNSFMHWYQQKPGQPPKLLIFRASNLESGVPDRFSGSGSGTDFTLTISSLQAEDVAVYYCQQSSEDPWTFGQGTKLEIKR : 3.01
humanized anti-TfR Fab 5H12 VH5 (C33Y)/Vκ3 (Fab, V domains shown, also called 5H12 (VH5-C33Y/Vk3)) VH: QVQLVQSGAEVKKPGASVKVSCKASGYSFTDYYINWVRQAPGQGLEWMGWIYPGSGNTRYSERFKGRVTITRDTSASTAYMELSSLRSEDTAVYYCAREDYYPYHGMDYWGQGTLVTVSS VL: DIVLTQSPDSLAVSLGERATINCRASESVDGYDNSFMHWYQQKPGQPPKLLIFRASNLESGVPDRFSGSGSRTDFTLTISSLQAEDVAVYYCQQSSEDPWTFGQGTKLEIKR : 1.07
humanized anti-TfR Fab 3M12 VH3/Vκ3 (Fab, V domains shown, also called 3M12 (VH3/Vk3)) VH: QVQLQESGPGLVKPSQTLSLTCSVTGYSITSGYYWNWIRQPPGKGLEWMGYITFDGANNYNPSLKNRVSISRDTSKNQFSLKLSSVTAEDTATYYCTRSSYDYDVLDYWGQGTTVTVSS VL: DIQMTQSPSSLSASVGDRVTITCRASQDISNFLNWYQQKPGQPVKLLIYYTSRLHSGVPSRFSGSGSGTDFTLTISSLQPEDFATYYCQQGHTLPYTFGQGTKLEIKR : 0.515
humanized anti-TfR Fab 3M12 VH4/Vκ2 (Fab, V domains shown, also called 3M12 (VH4/Vk2)) VH: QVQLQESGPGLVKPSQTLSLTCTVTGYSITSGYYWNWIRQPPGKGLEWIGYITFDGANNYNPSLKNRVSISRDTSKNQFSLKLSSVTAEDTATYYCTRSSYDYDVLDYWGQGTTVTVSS VL: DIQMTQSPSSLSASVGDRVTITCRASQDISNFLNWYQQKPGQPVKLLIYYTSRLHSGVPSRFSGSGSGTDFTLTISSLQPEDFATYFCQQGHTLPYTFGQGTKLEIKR : 0.51
humanized anti-TfR Fab 3M12 VH4/Vκ3 (Fab, V domains shown, also called 3M12 (VH4/Vk3); anti-TfR Fab 3M12 VH4/Vk3) VH: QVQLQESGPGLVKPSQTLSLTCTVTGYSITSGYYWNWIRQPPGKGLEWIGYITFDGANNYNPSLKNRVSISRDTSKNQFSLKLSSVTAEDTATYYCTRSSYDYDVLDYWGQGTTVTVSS VL: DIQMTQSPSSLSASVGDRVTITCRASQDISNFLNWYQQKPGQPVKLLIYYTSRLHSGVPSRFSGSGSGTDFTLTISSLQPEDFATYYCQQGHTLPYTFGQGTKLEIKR : 0.486
humanized anti-TfR Fab 3A4 VH3 (N54S)/Vκ4 (Fab, V domains shown, also called 3A4 (VH3-N54S/Vk4)) VH: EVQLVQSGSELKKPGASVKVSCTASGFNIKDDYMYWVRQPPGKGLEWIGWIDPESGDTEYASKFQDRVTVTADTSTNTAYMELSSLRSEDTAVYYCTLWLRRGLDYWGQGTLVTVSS VL: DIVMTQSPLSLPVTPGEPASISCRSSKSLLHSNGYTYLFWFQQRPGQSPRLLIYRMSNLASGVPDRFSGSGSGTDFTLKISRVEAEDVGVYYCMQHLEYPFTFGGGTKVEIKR : 1.39
humanized anti-TfR Fab 3A4 VH3/Vκ4 (Fab, V domains shown, also called 3A4 (VH3/Vk4)) VH: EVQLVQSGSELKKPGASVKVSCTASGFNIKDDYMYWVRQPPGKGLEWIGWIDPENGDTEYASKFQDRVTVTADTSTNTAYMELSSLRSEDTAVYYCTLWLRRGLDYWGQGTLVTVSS VL: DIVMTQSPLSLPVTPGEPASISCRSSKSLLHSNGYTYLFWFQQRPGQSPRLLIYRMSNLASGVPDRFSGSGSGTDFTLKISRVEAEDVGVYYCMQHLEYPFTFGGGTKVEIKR : 1.35
humanized anti-TfR Fab 3A4 VH3 (N54T)/Vκ4 (Fab, V domains shown, also called 3A4 (VH3-N54T/Vk4)) VH: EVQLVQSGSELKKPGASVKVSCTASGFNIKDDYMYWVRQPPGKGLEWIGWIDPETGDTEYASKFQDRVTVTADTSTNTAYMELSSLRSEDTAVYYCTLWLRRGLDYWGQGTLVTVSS VL: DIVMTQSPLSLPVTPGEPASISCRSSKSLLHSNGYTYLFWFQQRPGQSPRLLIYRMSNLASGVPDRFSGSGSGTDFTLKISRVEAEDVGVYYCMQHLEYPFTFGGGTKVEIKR : 3.01
humanized anti-TfR Fab 5H12 VH5 (C33Y)/Vκ4 (Fab, V domains shown, also called 5H12 (VH5-C33Y/Vk4)) VH: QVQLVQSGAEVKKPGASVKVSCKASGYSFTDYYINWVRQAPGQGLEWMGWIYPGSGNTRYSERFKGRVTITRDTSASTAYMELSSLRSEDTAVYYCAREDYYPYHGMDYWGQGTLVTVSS VL: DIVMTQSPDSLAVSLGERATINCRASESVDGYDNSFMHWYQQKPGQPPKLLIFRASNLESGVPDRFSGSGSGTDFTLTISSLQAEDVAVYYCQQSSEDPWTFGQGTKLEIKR : 1.33
